FYI, the data here is from patent US20190248900A1.

Target: T1, M12
T1 construct: also called PD1 mutant M12
Assay: scFv-phage ELISA
Experimental Readout: OD490
Answers are plain numbers.

Solved cases below.
PD1-41C9 (antibody, V domains shown, scFv-phage in the screening ELISA; whole IgG in the other assays) VH: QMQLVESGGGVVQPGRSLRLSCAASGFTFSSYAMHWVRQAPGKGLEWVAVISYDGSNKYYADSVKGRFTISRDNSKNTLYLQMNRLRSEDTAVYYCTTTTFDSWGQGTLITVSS VL: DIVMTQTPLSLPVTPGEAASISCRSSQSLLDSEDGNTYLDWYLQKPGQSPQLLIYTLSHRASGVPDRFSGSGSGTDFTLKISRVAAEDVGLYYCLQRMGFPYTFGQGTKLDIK	3.1
PD1-45F1 (antibody, V domains shown, scFv-phage in the screening ELISA; later whole IgG) VH: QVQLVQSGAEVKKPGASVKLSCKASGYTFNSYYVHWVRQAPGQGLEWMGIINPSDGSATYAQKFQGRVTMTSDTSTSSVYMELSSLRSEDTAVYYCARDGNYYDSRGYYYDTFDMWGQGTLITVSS VL: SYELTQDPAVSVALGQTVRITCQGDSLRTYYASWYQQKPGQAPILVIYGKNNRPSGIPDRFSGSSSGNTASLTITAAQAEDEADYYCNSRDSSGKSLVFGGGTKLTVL	0.4
PD1-48A9 (antibody, V domains shown, scFv-phage in the screening ELISA; whole IgG in the other assays) VH: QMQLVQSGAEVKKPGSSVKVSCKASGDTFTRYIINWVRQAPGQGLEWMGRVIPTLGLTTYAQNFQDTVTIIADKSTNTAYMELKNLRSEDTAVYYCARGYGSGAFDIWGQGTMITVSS VL: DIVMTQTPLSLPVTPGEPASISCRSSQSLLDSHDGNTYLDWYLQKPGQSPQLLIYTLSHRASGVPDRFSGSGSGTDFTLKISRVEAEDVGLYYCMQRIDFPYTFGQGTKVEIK	3.9

For each entry beneath this line, provide reported OD490.
1. PD1-29H3 (antibody, V domains shown, scFv-phage in the screening ELISA; later whole IgG) VH: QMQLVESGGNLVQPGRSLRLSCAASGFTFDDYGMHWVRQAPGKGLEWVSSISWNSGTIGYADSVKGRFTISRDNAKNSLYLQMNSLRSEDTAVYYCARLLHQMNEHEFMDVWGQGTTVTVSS VL: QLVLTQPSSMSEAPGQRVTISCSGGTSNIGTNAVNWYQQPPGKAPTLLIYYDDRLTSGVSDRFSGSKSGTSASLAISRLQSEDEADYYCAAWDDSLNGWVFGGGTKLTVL
2. PD1-49A2 (antibody, V domains shown, scFv-phage in the screening ELISA; whole IgG in the other assays; also called Parent 49A2) VH: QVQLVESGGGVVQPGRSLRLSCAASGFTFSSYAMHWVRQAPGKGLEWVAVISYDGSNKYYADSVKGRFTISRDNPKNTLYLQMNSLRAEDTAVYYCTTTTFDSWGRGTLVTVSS VL: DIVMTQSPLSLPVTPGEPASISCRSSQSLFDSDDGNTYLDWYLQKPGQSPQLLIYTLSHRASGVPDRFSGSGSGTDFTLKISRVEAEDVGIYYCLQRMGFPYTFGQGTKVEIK

1: 3; 2: 3.9
